Values from ChEMBL document CHEMBL4270513

- targetEntity: Melanocortin receptor 5 (Homo sapiens)
- Sequence (P33032 whole entry): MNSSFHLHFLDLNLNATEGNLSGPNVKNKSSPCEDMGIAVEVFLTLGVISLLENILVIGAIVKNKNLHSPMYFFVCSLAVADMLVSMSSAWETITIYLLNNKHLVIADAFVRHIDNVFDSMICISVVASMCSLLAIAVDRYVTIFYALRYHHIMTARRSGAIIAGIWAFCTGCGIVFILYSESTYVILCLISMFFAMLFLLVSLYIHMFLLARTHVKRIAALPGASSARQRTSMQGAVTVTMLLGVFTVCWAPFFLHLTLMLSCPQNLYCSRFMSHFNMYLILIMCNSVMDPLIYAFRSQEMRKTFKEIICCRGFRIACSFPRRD
- methodNotes: Agonist activity at human MC5R expressed in HEK293 cells at 10 uM after 3 mins by cAMP assay relative to MT-2
- Assay type: functional, cell-based
Square brackets hold non-standard residues; d marks the D form. Peptide text beside a SMILES is read from it. dPhe(4-CF3) = N[C@H](Cc1ccc(C(F)(F)F)cc1)C(=O)O; dPhe(4-Br) = N[C@H](Cc1ccc(Br)cc1)C(=O)O; dPhe(4-Cl) = N[C@H](Cc1ccc(Cl)cc1)C(=O)O; dPhe(4-F) = N[C@H](Cc1ccc(F)cc1)C(=O)O; Nle = CCCC[C@H](N)C(=O)O
In this section, each of the compounds is paired with its reported Activity.

- compound: "CCCC[C@H](NC(=O)[C@@H](Cc1ccc(C(F)(F)F)cc1)NC(=O)[C@@H]1CCCN1C(C)=O)C(=O)N[C@@H](Cc1c[nH]c2ccccc12)C(N)=O (Ac-P[dPhe(4-CF3)][Nle]W-NH2)"
  Activity: "0%"
- compound: "CCCC[C@H](NC(=O)[C@@H](Cc1ccc(F)cc1)NC(=O)[C@@H]1CCCN1C(C)=O)C(=O)N[C@@H](Cc1c[nH]c2ccccc12)C(N)=O (Ac-P[dPhe(4-F)][Nle]W-NH2)"
  Activity: "0%"
- compound: "CCCC[C@H](NC(=O)[C@@H](Cc1ccc(Br)cc1)NC(=O)[C@@H]1CCCN1C(C)=O)C(=O)N[C@@H](Cc1c[nH]c2ccccc12)C(N)=O (Ac-P[dPhe(4-Br)][Nle]W-NH2)"
  Activity: "0%"
- compound: "CC(=O)N[C@@H](Cc1cnc[nH]1)C(=O)N[C@H](Cc1ccccc1)C(=O)N[C@@H](CCCNC(=N)N)C(=O)N[C@@H](Cc1c[nH]c2ccccc12)C(N)=O"
  Activity: "63%"
- compound: "CCCC[C@H](NC(=O)[C@@H](Cc1ccc(C(F)(F)F)cc1)NC(=O)[C@H](Cc1cnc[nH]1)NC(C)=O)C(=O)N[C@@H](Cc1c[nH]c2ccccc12)C(N)=O (Ac-H[dPhe(4-CF3)][Nle]W-NH2)"
  Activity: "44%"
- compound: "CCCC[C@H](NC(=O)[C@@H](Cc1ccc(Cl)cc1)NC(=O)[C@@H]1CCCN1C(C)=O)C(=O)N[C@@H](Cc1c[nH]c2ccccc12)C(N)=O (Ac-P[dPhe(4-Cl)][Nle]W-NH2)"
  Activity: "0%"
- compound: "CCCC[C@H](NC(=O)[C@@H](Cc1ccccc1)NC(=O)[C@@H]1CCCN1C(C)=O)C(=O)N[C@@H](Cc1c[nH]c2ccccc12)C(N)=O (Ac-P[dF][Nle]W-NH2)"
  Activity: "0%"
